Biological target: T1, hADAR1d E1008Q (Homo sapiens, UniProt P55265 SEQ:833-1226)
T1 chain: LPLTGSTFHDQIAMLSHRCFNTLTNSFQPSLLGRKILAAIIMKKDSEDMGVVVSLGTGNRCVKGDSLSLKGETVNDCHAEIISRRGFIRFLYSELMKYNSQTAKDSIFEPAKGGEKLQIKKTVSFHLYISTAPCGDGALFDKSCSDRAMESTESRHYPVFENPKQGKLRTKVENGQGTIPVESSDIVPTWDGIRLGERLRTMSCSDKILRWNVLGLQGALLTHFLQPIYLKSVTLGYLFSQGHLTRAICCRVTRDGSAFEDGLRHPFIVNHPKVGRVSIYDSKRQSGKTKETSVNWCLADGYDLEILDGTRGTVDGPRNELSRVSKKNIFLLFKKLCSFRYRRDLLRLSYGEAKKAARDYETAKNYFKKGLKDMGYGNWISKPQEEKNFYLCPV
Assay: 500 nM, 2 h
Settings: dA-C mismatch
metric: activity (% edited)
Report the figure in % edited without appending any unit label.

// known answers, use as guide
M13 GAA site + guide RNA (DNA:RNA) DNA: AGGCCAGACGCGAATTATTTTTGA RNA: UCAAAAAUAAUCCGCGUCUGGCCU; 27
M13 AAG site + guide RNA (DNA:RNA) DNA: CCAAATGGCTCAAGTCGGTGACGG RNA: CCGUCACCGACCUGAGCCAUUUGG; 81
M13 TAG site + guide RNA (DNA:RNA) DNA: CCTCGCGTTCTTAGAATACCGGAT RNA: AUCCGGUAUUCCAAGAACGCGAGG; 94

# next binder below
Looking for the measured activity of M13 CAC site + guide RNA (DNA:RNA) DNA: CTTTCTATTCTCACTCCGCTGAAA RNA: UUUCAGCGGAGCGAGAAUAGAAAG , can you help?
53
